B1: EHEE_rd2_1257 (parent)
chain: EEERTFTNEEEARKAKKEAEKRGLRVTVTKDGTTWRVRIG

- Variants of: B1
- PROTOCOL_NOTES: folding stability dG (cDNA display proteolysis); higher = more stable
- ASSAY_SETUP: PBS, room temperature
Listed here are variants together with their documented folding stability dG.
The figure you give is taken to be in kcal/mol; do not add the unit.

Sure, the documented folding stability dG for `T34E` is 1.81

Sure, the documented folding stability dG for `R25M` is 1.81

Sure, the documented folding stability dG for `K16M` is 2.66

Sure, the documented folding stability dG for `E3T` is 1.99

Sure, the documented folding stability dG for `L24V` is 1.21

Sure, the documented folding stability dG for `E2P` is 1.43

Sure, the documented folding stability dG for `G23R` is 0.397

Sure, the documented folding stability dG for `K14G` is 1.49

Sure, the documented folding stability dG for `K16H` is 1.53

Sure, the documented folding stability dG for `T7M` is 1.89
